Reference for the values: patent US11292796B2

Recorded below: IC50, system mTOR (Homo sapiens).
REPORTED_METRIC: IC50

# STRUCTURE, REPORTED_METRIC, VAL
records = [
    ("CO[C@@H]1CC[C@H](N2C(=O)CNc3ncc(-c4ccc(C(C)(C)O)nc4)nc32)C1", "IC50", "0.005 to 250 nM"),
    ("CC(C)(O)c1ccc(-c2cnc3c(n2)N(C2CCNCC2)CC(=O)N3)cn1", "IC50", "1000 to 10000 nM"),
    ("COCCN1C(=O)CNc2ncc(-c3ccc(-c4nc[nH]n4)nc3)nc21", "IC50", "0.005 to 250 nM"),
    ("Cc1cc(-c2cnc3c(n2)N(Cc2cccc(C(F)(F)F)c2)CC(=O)N3)cc2nc(N)[nH]c12", "IC50", "500 to 1000 nM"),
    ("Cc1cc(-c2nnc[nH]2)ccc1-c1cnc2c(n1)NC(=O)CN2", "IC50", "0.005 to 250 nM"),
]
